FYI, the data here is from paper PMC6005765.

target: δ opioid receptor (UniProt P41143); experiment: radioligand binding
Starred links: 1 amine or outer side, 2 acyl side, 3 side chain; linkers in the order of their positions; H or OH if unused. Non-standard residues stand in square brackets, D forms with d. No end group written: not given here. Phe(3-(3-thienyl)) = O=C([C@H](Cc1cccc(-c2ccsc2)c1)N[*:1])[*:2]; Dmt = Cc1cc(O)cc(C)c1C[C@H](N)C(=O)O
ASSAY_READOUT: IC50

Asked: # return recorded IC50 for entry [Dmt][dR][Phe(3-(3-thienyl))]G-NH2 (N-terminus assumed; SMILES Cc1cc(O)cc(C)c1C[C@H](N)C(=O)N[C@H](CCCNC(=N)N)C(=O)N[C@@H](Cc1cccc(-c2ccsc2)c1)C(=O)NCC(N)=O) [Dmt-D-Arg-Phe(3-(3-thienyl))-Gly-NH2]
Given back: 601 nM
